Reference for the values: paper PMC7819943

Target: OsSMF1 (Oryza sativa, UniProt Q6ZLB0 1-436)
Sequence: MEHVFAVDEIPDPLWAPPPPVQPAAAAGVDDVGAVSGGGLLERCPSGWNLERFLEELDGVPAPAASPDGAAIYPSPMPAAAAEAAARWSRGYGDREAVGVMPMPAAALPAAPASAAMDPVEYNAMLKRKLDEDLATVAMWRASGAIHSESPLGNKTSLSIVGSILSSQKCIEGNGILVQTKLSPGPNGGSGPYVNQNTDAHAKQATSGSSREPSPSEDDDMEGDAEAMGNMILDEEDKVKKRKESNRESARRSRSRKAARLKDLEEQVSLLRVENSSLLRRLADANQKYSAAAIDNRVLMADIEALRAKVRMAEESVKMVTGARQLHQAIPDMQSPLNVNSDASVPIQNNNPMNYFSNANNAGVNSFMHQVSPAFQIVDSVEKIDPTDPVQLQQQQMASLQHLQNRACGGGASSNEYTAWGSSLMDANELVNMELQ
Test: protein-binding microarray (RPBM); PBS, 2% BSA, 51.3 ng/ul salmon testes DNA, 50 uM zinc acetate, 200 nM TF, 25 C, 1 h; high values mean tight binding
Conditions: protein: recombinant; tags: N-terminal polyhistidine and DsRed monomer fusion (pET32a); chain copies: 2; label: CyDye5-dUTP incorporated in the synthesized complementary strand; 3' TTTTT single-stranded linker to array surface; dsDNA, one strand shown
Over roughly 39,000 sequences, “fluorescence intensity (a.u.)” has its median near 4,300; the highest 2% begin near 39,000. For the sample, the highest values were picked, then their nearest neighbours and some sequences at random.
PROPERTY_LABEL: binding signal

| SEQUENCE_DATA | PROPERTY_LABEL | RECORDED_MEASUREMENT |
| --- | --- | --- |
| ATAAATTTGGACGCATCCCAAAATTCGGCAAACATATGACCGGAGTCACCTAGTGCAG | binding signal | 39200 fluorescence intensity (a.u.) |
| GTAGAAAGCAGGGATAAAGTATTGGTGGAGATGTCACGCCCGGAGTCACCTAGTGCAG | binding signal | 3560 fluorescence intensity (a.u.) |
| CTCCTACATGCACTCCCCTCTACAAAACCACAACCAGCATCGGAGTCACCTAGTGCAG | binding signal | 3600 fluorescence intensity (a.u.) |
| CGACGCCGCCGAGATCGCCGTCACCCGAATCCTGCGACGCCGGAGTCACCTAGTGCAG | binding signal | 3580 fluorescence intensity (a.u.) |
| TCCAATCCTGCGTGGAGTAATTTATTTCAAGCGCAACAGGCGGAGTCACCTAGTGCAG | binding signal | 3630 fluorescence intensity (a.u.) |
| ACCATCCGAGCTGTCAAGATCCGACGTGGGTTGTGAAGGCCGGAGTCACCTAGTGCAG | binding signal | 8700 fluorescence intensity (a.u.) |
| TCGTCGCACGACCAGACCAGCAGCACCAACTCCCTTTCTGCGGAGTCACCTAGTGCAG | binding signal | 3160 fluorescence intensity (a.u.) |
| ACCAACCAACCAACCAACCAACCAAGCCTCCCAACTCCATCGGAGTCACCTAGTGCAG | binding signal | 3810 fluorescence intensity (a.u.) |
| TATAAATTTGGACACATATATGAAACACATATATTGATCCCGGAGTCACCTAGTGCAG | binding signal | 30400 fluorescence intensity (a.u.) |
